LD50 overview
Experiment: in vivo
Conditions: mouse, ip

# Compound, LD50 / mg/kg
records = [
    ("CCOC(=O)NCCc1ccc(OCC(O)CNC(C)C)cc1 (centres unmarked)", 200),
    ("COC(=O)NCCc1ccc(OCC(O)CNC(C)C)cc1 (centres unmarked) [(no label)]", 125),
    ("CCOCCc1ccc(OCC(O)CNC(C)C)cc1 (centres unmarked)", 150),
    ("COCCc1ccc(OCC(O)CNC(C)C)cc1 (centres unmarked)", 200),
    ("CCOCc1ccc(OCC(O)CNC(C)C)cc1 (centres unmarked)", 175),
]
